Source of measurements: the RNAGym collection of RNA variant scans (doi:10.7554/elife.80360)

B1: HDV Ribozyme (parent)
chain: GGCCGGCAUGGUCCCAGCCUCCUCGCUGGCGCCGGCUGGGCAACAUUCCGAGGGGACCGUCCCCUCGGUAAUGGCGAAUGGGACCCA

- Variants of: B1
- runDescription: self-cleavage, relative activity (ratio to wild type); higher = more cleavage; co-transcriptional
self-cleavage below 0.3 gives FALSE; self-cleavage at or above it gives TRUE.

Reported self-cleavage at or above 0.3? G10C G59C
TRUE
